From: patent US4436751A

System: M. suipneumoniae NB12
measurementProtocol: Anti-mycoplasmal MIC in vitro, Friis broth agarose (Table 1)
Assay type: cell-based
details: Mesomycoplasma hyopneumoniae, NB12, 144 h
Listing of entries alongside the reported MIC.

stdin: Please give the measured MIC for this molecule: C/C(=C\C(=O)OC(C)c1ccc([N+](=O)[O-])cc1)CC1OCC(CC2OC2C(C)C(C)O)C(O)C1O (centres unmarked) [Example 4, 1-(p-nitrophenyl)ethyl monate A]
stdout: 1 µg/mL

stdin: Which MIC value belongs to C/C(=C\C(=O)OCc1ccc([N+](=O)[O-])cc1[N+](=O)[O-])CC1OCC(CC2OC2C(C)C(C)O)C(O)C1O (centres unmarked) [Example 10, 2,4-dinitrobenzyl monate A] ?
stdout: 1 µg/mL

stdin: If you can, please state the reported MIC value of C/C(=C\C(=O)OCc1ccc([N+](=O)[O-])c([N+](=O)[O-])c1)CC1OCC(CC2OC2C(C)C(C)O)C(O)C1O (centres unmarked) [Example 9, 3,4-dinitrobenzyl monate A] .
stdout: 0.25 µg/mL

stdin: Fill in: MIC of C/C(=C\C(=O)OCc1ccc([N+](=O)[O-])cc1Cl)CC1OCC(CC2OC2C(C)C(C)O)C(O)C1O (centres unmarked) [Example 11, 2-chloro-4-nitrobenzyl monate A] is ___
stdout: 1 µg/mL

stdin: Please report the recorded MIC for C/C(=C\C(=O)OCc1cccc([N+](=O)[O-])c1C)CC1OCC(CC2OC2C(C)C(C)O)C(O)C1O (centres unmarked) [Example 8, 2-methyl-3-nitrobenzyl monate A] .
stdout: 0.1 µg/mL

* * *

Tested on: Strep. agalactiae SPA1
measurementProtocol: Veterinary bacteria MIC, Diagnostic Sensitivity Test Agar (Table 2)
Format: cell-based
details: Streptococcus agalactiae, SPA1, 18 h
Protocol: The values were determined using a two fold serial dilutions in Diagnostic Sensitivity Test Agar with an inoculum of 10^4 organisms and incubation for 18 hours at 37° C.
endpointName: MIC (µg/mL)
Note: unit µg/mL is implicit; provide only the numeric part.

Below, 3 compounds whose answers are already recorded.
C/C(=C\C(=O)OCc1ccc([N+](=O)[O-])cc1[N+](=O)[O-])CC1OCC(CC2OC2C(C)C(C)O)C(O)C1O (stereo not shown) [Example 10, 2,4-dinitrobenzyl monate A]	1.25
C/C(=C\C(=O)OCc1ccc([N+](=O)[O-])c([N+](=O)[O-])c1)CC1OCC(CC2OC2C(C)C(C)O)C(O)C1O (stereo not shown) [Example 9, 3,4-dinitrobenzyl monate A]	0.312
C/C(=C\C(=O)OCc1cc([N+](=O)[O-])cc([N+](=O)[O-])c1)CC1OCC(CC2OC2C(C)C(C)O)C(O)C1O (stereo not shown) [Example 6, 3,5-dinitrobenzyl monate A]	0.312

API: the following record is the query input.
stdin: For C/C(=C\C(=O)OCc1cc([N+](=O)[O-])cc([N+](=O)[O-])c1C)CC1OCC(CC2OC2C(C)C(C)O)C(O)C1O (stereo not shown) [Example 7, 3,5-dinitro-2-methylbenzyl monate A] , what is its reported MIC?
stdout: 0.625

* * *

System: Staph. aureus W2827
measurementProtocol: Human bacteria MIC, nutrient agar with chocolated horse blood (Table 3)
Format: cell-based
details: Staphylococcus aureus, W2827, 18 h
endpointName: MIC
Number first, unit second.

Example entries and their recorded answers appear below.
C/C(=C\C(=O)OCc1ccc([N+](=O)[O-])c([N+](=O)[O-])c1)CC1OCC(CC2OC2C(C)C(C)O)C(O)C1O (stereo not drawn) [Example 9, 3,4-dinitrobenzyl monate A]	1 µg/mL
C/C(=C\C(=O)OCc1cc([N+](=O)[O-])cc([N+](=O)[O-])c1)CC1OCC(CC2OC2C(C)C(C)O)C(O)C1O (stereo not drawn) [Example 6, 3,5-dinitrobenzyl monate A]	1 µg/mL
C/C(=C\C(=O)OCc1ccc([N+](=O)[O-])cc1[N+](=O)[O-])CC1OCC(CC2OC2C(C)C(C)O)C(O)C1O (stereo not drawn) [Example 10, 2,4-dinitrobenzyl monate A]	2.5 µg/mL

stdin: // lookup MIC for C/C(=C\C(=O)OCc1ccc([N+](=O)[O-])cc1Cl)CC1OCC(CC2OC2C(C)C(C)O)C(O)C1O (stereo not drawn) [Example 11, 2-chloro-4-nitrobenzyl monate A]
stdout: 1 µg/mL

stdin: Item C/C(=C\C(=O)OCc1cccc([N+](=O)[O-])c1)CC1OCC(C/C=C/C(C)C(C)O)C(O)C1O (stereo not drawn) [Example 5, m-nitrobenzyl monate C] has what recorded MIC?
stdout: 5 µg/mL

stdin: # get_value(readout='MIC', item= C/C(=C\C(=O)OCc1cc([N+](=O)[O-])cc([N+](=O)[O-])c1C)CC1OCC(CC2OC2C(C)C(C)O)C(O)C1O (stereo not drawn) [Example 7, 3,5-dinitro-2-methylbenzyl monate A] )
stdout: 2.5 µg/mL

* * *

System: Strep. dylgalactiae SPD1
measurementProtocol: Veterinary bacteria MIC, Diagnostic Sensitivity Test Agar (Table 2)
Format: cell-based
details: Strep. dylgalactiae SPD1; DST Agar, 10^4 organisms, 18 hours 37° C.; read-out: MIC
Known MIC of a selection of molecules
I only need the number, in µg/mL, no unit after it.

Previously resolved entries follow.
C/C(=C\C(=O)OCc1cccc([N+](=O)[O-])c1)CC1OCC(C/C=C/C(C)C(C)O)C(O)C1O (stereo not drawn) [Example 5, m-nitrobenzyl monate C]	1.25
C/C(=C\C(=O)OCc1cccc([N+](=O)[O-])c1)CC1OCC(CC2OC2C(C)C(C)O)C(O)C1O (stereo not drawn) [Example 2, m-nitrobenzyl monate A]	0.312

From here, focus on the item given below.
stdin: Observed MIC on Strep. dylgalactiae SPD1 for C/C(=C\C(=O)OC(C)c1ccc([N+](=O)[O-])cc1)CC1OCC(CC2OC2C(C)C(C)O)C(O)C1O (stereo not drawn) [Example 4, 1-(p-nitrophenyl)ethyl monate A] , please.
stdout: 0.625

* * *

Test system: Ps. aeruginosa NCTC 10662
measurementProtocol: Human bacteria MIC, nutrient agar with chocolated horse blood (Table 3)
Assay type: cell-based
details: Pseudomonas aeruginosa, NCTC10662; Ps. aeruginosa NCTC 10662; nutrient agar 5% chocolated horse blood, 18 hours 37° C.; read-out: MIC
endpointName: MIC

C/C(=C\C(=O)OC(C)c1cccc([N+](=O)[O-])c1)CC1OCC(CC2OC2C(C)C(C)O)C(O)C1O (stereo not drawn) [Example 3, 1-(m-nitrophenyl)ethyl monate A]	> 100 µg/mL
C/C(=C\C(=O)OCc1cccc([N+](=O)[O-])c1C)CC1OCC(CC2OC2C(C)C(C)O)C(O)C1O (stereo not drawn) [Example 8, 2-methyl-3-nitrobenzyl monate A]	> 100 µg/mL
C/C(=C\C(=O)OCc1ccc([N+](=O)[O-])cc1)CC1OCC(CC2OC2C(C)C(C)O)C(O)C1O (stereo not drawn) [Example 1, p-nitrobenzyl monate A]	> 100 µg/mL
C/C(=C\C(=O)OC(C)c1ccc([N+](=O)[O-])cc1)CC1OCC(CC2OC2C(C)C(C)O)C(O)C1O (stereo not drawn) [Example 4, 1-(p-nitrophenyl)ethyl monate A]	> 100 µg/mL
C/C(=C\C(=O)OCc1cccc([N+](=O)[O-])c1)CC1OCC(C/C=C/C(C)C(C)O)C(O)C1O (stereo not drawn) [Example 5, m-nitrobenzyl monate C]	> 100 µg/mL

Moving on to another compound below.
stdin: Find the measured MIC: item C/C(=C\C(=O)OCc1cccc([N+](=O)[O-])c1)CC1OCC(CC2OC2C(C)C(C)O)C(O)C1O (stereo not drawn) [Example 2, m-nitrobenzyl monate A] , target or system Ps. aeruginosa NCTC 10662.
stdout: > 100 µg/mL

* * *

Below: a set of entries, each annotated with reported MIC.
Test system: Neisseria catarrhalis 1502
measurementProtocol: Human bacteria MIC, nutrient agar with chocolated horse blood (Table 3)
Assay type: cell-based
details: Neisseria catarrhalis 1502; nutrient agar 5% chocolated horse blood, 18 hours 37° C.; read-out: MIC

Observe how each entry below is paired with its result.
C/C(=C\C(=O)OCc1cccc([N+](=O)[O-])c1C)CC1OCC(CC2OC2C(C)C(C)O)C(O)C1O (centres unmarked) [Example 8, 2-methyl-3-nitrobenzyl monate A]	0.25 mg/L
C/C(=C\C(=O)OCc1ccccc1[N+](=O)[O-])CC1OCC(CC2OC2C(C)C(C)O)C(O)C1O (centres unmarked) [C, O--nitrobenzyl monate A, reference compound]	1 mg/L
C/C(=C\C(=O)OC(C)c1ccc([N+](=O)[O-])cc1)CC1OCC(CC2OC2C(C)C(C)O)C(O)C1O (centres unmarked) [Example 4, 1-(p-nitrophenyl)ethyl monate A]	0.5 mg/L
C/C(=C\C(=O)OCc1cccc([N+](=O)[O-])c1)CC1OCC(C/C=C/C(C)C(C)O)C(O)C1O (centres unmarked) [Example 5, m-nitrobenzyl monate C]	1 mg/L

Turning now to a further compound:
stdin: Reported MIC for Neisseria catarrhalis 1502, given C/C(=C\C(=O)OCc1cccc([N+](=O)[O-])c1)CC1OCC(CC2OC2C(C)C(C)O)C(O)C1O (centres unmarked) [Example 2, m-nitrobenzyl monate A] ?
stdout: 2.5 mg/L
